- Test system: DU-4475 (Breast Carcinoma)
- Assay remarks: combination Emax (second highest fraction inhibited in the dose matrix, 72 h); higher = more inhibition; extreme values may be limits of the assay

Molecule: C=CCn1c(=O)c2cnc(Nc3ccc(N4CCN(C)CC4)cc3)nc2n1-c1cccc(C(C)(C)O)n1 [AZD1775] + C1CN(CCC1(C(=O)N[C@@H](CCO)C2=CC=C(C=C2)Cl)N)C3=NC=NC4=C3C=CN4 [Capivasertib] (first compound max 3 µM, partner max 3 µM)
combination Emax: 0.998

Molecule: CN(CCO)CC[C@H](CSc1ccccc1)Nc1ccc(S(=O)(=O)NC(=O)c2ccc(N3CCC([C@@H](O)c4ccccc4-c4ccc(Cl)cc4)CC3)cc2)cc1S(=O)(=O)C(F)(F)F [AZD4320] + C[C@@H](Nc1cc(F)cc(F)c1)c1cc(C(=O)N(C)C)cc2c(=O)cc(N3CCOCC3)oc12 [AZD8186] (first compound max 1 µM, 7x7, partner max 3 µM)
combination Emax: 1

Molecule: NC1(C(=O)N[C@@H](CCO)c2ccc(Cl)cc2)CCN(c2ncnc3[nH]ccc23)CC1 [Capivasertib] + C[C@@H]1COCCN1C2=NC(=NC(=C2)C3(CC3)[S@](=N)(=O)C)C4=C5C=CNC5=NC=C4 [AZD6738] (first compound max 10 µM, 7x7, partner max 10 µM)
combination Emax: 0.987
